Population Pyknosed Nuclei (%): recorded values
# Tested on: HEK-293T
# Test summary: Multiplex assay against HEK293T
# Assay type: toxicity, cell-based
# Condition parameters: human, 12 h, 10 µM, compound concentration 10 uM, replicate 1
Return type: number; implicit unit %.

Sample records with Population Pyknosed Nuclei (%):
CCc1cc2c(cc1CC)CC(NC[C@H](O)c1ccc(O)c3[nH]c(=O)ccc13)C2 [INDACATEROL] : 67
CN(C)CCOc1ccc(-c2nc(-c3ccncc3)c(-c3ccc4c(c3)CC/C4=N\O)[nH]2)cc1 [SB590885] : 18
Cl.Cl.NC1(c2ccc(-c3nc4ccn5c(=O)[nH]nc5c4cc3-c3ccccc3)cc2)CCC1 : 42
Cl.Cl.Nc1ncnc2c1c(-c1cccc(OCc3ccccc3)c1)cn2[C@H]1C[C@@H](CN2CCC2)C1 : 69
CCCn1c(=O)c2[nH]c(C34CC5CC(CC3C5)C4)nc2n(CCC)c1=O [ROLOFYLLINE] : 59
Cc1cn(-c2cc(NC(=O)c3ccc4c(c3)CN(c3cncnc3)C[C@@H]4C)cc(C(F)(F)F)c2)cn1 : 20
c1ccc2oc(-c3csc(C4CCN(Cc5nc6ncccc6[nH]5)CC4)n3)cc2c1 : 26
O=C(O)c1ccc2c(c1)nc(Nc1cccc(Cl)c1)c1ccncc12 [SILMITASERTIB] : 17
CC(C)N1CCC(C)(C)c2cc(C#Cc3ccc(C(=O)O)cc3)ccc21 : 8
COc1cc2c(NC3CCN(C(C)C)CC3)nc(N3CCC(F)(F)CC3)nc2cc1OCCCN1CCCC1 : 64

Input line: Return reported Population Pyknosed Nuclei (%). Input molecule: Nc1ccc(C(=O)Nc2cccc(-c3nc(N4CCOCC4)c4oc5ncccc5c4n3)c2)cn1
Output line: 49

Input line: For the molecule Cc1cc2c(cc1N1C(=O)c3cccc4c(CCCO)ccc(c34)C1=O)n(C)c(=O)n2C , give its reported Population Pyknosed Nuclei (%).
Output line: 48

Input line: Look up Population Pyknosed Nuclei (%) of COc1cc2c(Nc3ccc(NC(=O)c4ccccc4)cc3)ncnc2cc1OCCCN1CCOCC1 and report it.
Output line: 22

Input line: Dear colleague, please send me the reported Population Pyknosed Nuclei (%) for CNC(=O)c1cc(Oc2ccc(NC(=O)Nc3cc(C(C)(C)C)nn3-c3ccc4ncccc4c3)c(F)c2)ccn1 [REBASTINIB] when you can.
Output line: 46

Input line: State its Population Pyknosed Nuclei (%): O=C(O)c1ccc2cc(-c3ccc(O)c(C45CC6CC(CC(C6)C4)C5)c3)ccc2c1 [O-DEMETHYLATED ADAPALENE]
Output line: 45

Input line: Specify measured Population Pyknosed Nuclei (%) for N#Cc1cnc(Nc2cc(NC[C@H]3CNCCO3)c(C(F)(F)F)cn2)cn1 [SRA-737] .
Output line: 20

Input line: Specify Population Pyknosed Nuclei (%) for CCOc1cc(N2CCC(O)CC2)ccc1Nc1ncc2c(n1)N(C1CCCC1)CCC(=O)N2C and stop.
Output line: 19

Input line: Give reported Population Pyknosed Nuclei (%) value for CNc1oc(-c2cccc3ccccc23)nc1C#N
Output line: 1

====

# Test system: U2OS
# Test summary: Multiplex assay against U2OS
# Format: toxicity, cell-based
# Condition parameters: human, 24 h, 1 µM, compound concentration 1 uM, replicate 2
Quick reference for Total Cell Count among some compounds
Respond using a number only.

Some solved cases for reference:
CC(C)N1CCC(C)(C)c2cc(C#Cc3ccc(C(=O)O)cc3)ccc21 : 81
CN(C)CCOc1ccc(-c2nc(-c3ccncc3)c(-c3ccc4c(c3)CC/C4=N\O)[nH]2)cc1 : 196
CCn1c(-c2nonc2N)nc2cnc(Oc3cccc(NC(=O)c4ccc(OCCN5CCOCC5)cc4)c3)cc21 [GSK-269962A] : 59
Cc1cc2c(cc1N1C(=O)c3cccc4c(CCCO)ccc(c34)C1=O)n(C)c(=O)n2C : 96
Cl.Cl.NC1(c2ccc(-c3nc4ccn5c(=O)[nH]nc5c4cc3-c3ccccc3)cc2)CCC1 : 103

Input line: Recall the reported Total Cell Count of N#Cc1cnc(Nc2cc(NC[C@H]3CNCCO3)c(C(F)(F)F)cn2)cn1 on U2OS and write it down.
Output line: 179

Input line: Report Total Cell Count from U2OS testing of Cc1nc(Cc2cccc(C(F)(F)F)c2)sc1-c1ccc(C(N)=O)nc1 [TP-024n]
Output line: 126

Input line: State Total Cell Count (U2OS) of CC(C)(C)c1cnc(CSc2cnc(NC(=O)C3CCNCC3)s2)o1 .
Output line: 166

Input line: Please respond with reported Total Cell Count (system U2OS) for Cc1cn(-c2cc(NC(=O)c3ccc4c(c3)CN(c3cncnc3)C[C@@H]4C)cc(C(F)(F)F)c2)cn1 .
Output line: 143

Input line: Lab note: record Total Cell Count of COc1cc2c(Nc3ccc(NC(=O)c4ccccc4)cc3)ncnc2cc1OCCCN1CCOCC1 tested on U2OS.
Output line: 108

====

Item-by-item account of Population Tubulin-Different-Phenotype (%)
# Tested on: U2OS
# Test summary: Multiplex assay against U2OS
# Format: toxicity, cell-based
# Condition parameters: human, 12 h, 1 µM, compound concentration 1 uM, replicate 1
Numbers only here, please. The scale is %.

Illustrative cases are given below, each with its answer.
CNC(=O)c1cc(Oc2ccc(NC(=O)Nc3cc(C(C)(C)C)nn3-c3ccc4ncccc4c3)c(F)c2)ccn1 : 13
CNc1oc(-c2cccc3ccccc23)nc1C#N : 8
CNC(=O)c1nn(C)c2c1C(C)(C)Cc1cnc(Nc3ccc(N4CCN(C)CC4)cc3)nc1-2 : 100
c1ccc2oc(-c3csc(C4CCN(Cc5nc6ncccc6[nH]5)CC4)n3)cc2c1 : 10

Input line: Please supply the value of reported Population Tubulin-Different-Phenotype (%) for the item CC(=O)c1cc(-c2cc(C(=O)NC3CC3)ccc2C)c2ncccn12
Output line: 14

Input line: Report Population Tubulin-Different-Phenotype (%), nothing else, for this molecule: CN(C)C/C=C/C(=O)Nc1cc2c(Nc3ccc(F)c(Cl)c3)ncnc2cc1O[C@H]1CCOC1.O=C(O)/C=C\C(=O)O.O=C(O)/C=C\C(=O)O [AFATINIB DIMALEATE]
Output line: 18

Input line: Answer with the recorded Population Tubulin-Different-Phenotype (%) of Nc1ccc(C(=O)Nc2cccc(-c3nc(N4CCOCC4)c4oc5ncccc5c4n3)c2)cn1 only.
Output line: 54

Input line: Input Cl.Cl.Nc1ncnc2c1c(-c1cccc(OCc3ccccc3)c1)cn2[C@H]1C[C@@H](CN2CCC2)C1 , output reported Population Tubulin-Different-Phenotype (%).
Output line: 38

Input line: Return reported Population Tubulin-Different-Phenotype (%). Input molecule: Cc1cn(-c2cc(NC(=O)c3ccc4c(c3)CN(c3cncnc3)C[C@@H]4C)cc(C(F)(F)F)c2)cn1
Output line: 33

Input line: Let me know recorded Population Tubulin-Different-Phenotype (%) for O=C(O)c1ccc2cc(-c3ccc(O)c(C45CC6CC(CC(C6)C4)C5)c3)ccc2c1 , thanks.
Output line: 15

====

# Tested on: Fibroblast
# Test summary: Multiplex assay against human fibroblast
# Assay type: toxicity, cell-based
# Condition parameters: 12 h, 1 µM, compound concentration 1 uM, replicate 1
// classify: if (Population Mitochondria Different-Phenotype (%) < 3%) t else f

CN(C)CCOc1ccc(-c2nc(-c3ccncc3)c(-c3ccc4c(c3)CC/C4=N\O)[nH]2)cc1 : t
Cc1cc2c(cc1N1C(=O)c3cccc4c(CCCO)ccc(c34)C1=O)n(C)c(=O)n2C : f
CC(C)N1CCC(C)(C)c2cc(C#Cc3ccc(C(=O)O)cc3)ccc21 : f

Now for a further compound.
Input line: Determine whether this compound shows Population Mitochondria Different-Phenotype (%) lower than 3% (ties excluded): CNc1oc(-c2cccc3ccccc23)nc1C#N
Output line: t

====

Entries annotated with measured Population Fragmented Nuclei (%)
# Tested on: U2OS
# Test summary: Multiplex assay against U2OS
# Type: toxicity, cell-based
# Condition parameters: human, 24 h, 10 µM, compound concentration 10 uM, replicate 2
Only the number, expressed in %, is required.

COc1cc2c(Nc3ccc(NC(=O)c4ccccc4)cc3)ncnc2cc1OCCCN1CCOCC1 : 14
CN(C)C/C=C/C(=O)Nc1cc2c(Nc3ccc(F)c(Cl)c3)ncnc2cc1O[C@H]1CCOC1.O=C(O)/C=C\C(=O)O.O=C(O)/C=C\C(=O)O [AFATINIB DIMALEATE] : 22
O=C(O)c1ccc2cc(-c3ccc(O)c(C45CC6CC(CC(C6)C4)C5)c3)ccc2c1 [O-DEMETHYLATED ADAPALENE] : 14

# ---- query compound ----
Input line: Quickly give me recorded Population Fragmented Nuclei (%) for Cc1cn(-c2cc(NC(=O)c3ccc4c(c3)CN(c3cncnc3)C[C@@H]4C)cc(C(F)(F)F)c2)cn1
Output line: 8

====

# Tested on: HEK-293T
# Test summary: Multiplex assay against HEK293T
# Assay type: toxicity, cell-based
# Condition parameters: human, 12 h, 10 µM, compound concentration 10 uM, replicate 1
Criterion: Population Healthy Nuclei (%) strictly under 30%. Met: 1.0. Not met: 0.0.

Please review the entries below; each comes with its answer.
CCOc1cc(N2CCC(O)CC2)ccc1Nc1ncc2c(n1)N(C1CCCC1)CCC(=O)N2C : 0.0
CC(C)N1CCC(C)(C)c2cc(C#Cc3ccc(C(=O)O)cc3)ccc21 : 0.0
CCc1cc2c(cc1CC)CC(NC[C@H](O)c1ccc(O)c3[nH]c(=O)ccc13)C2 : 1.0

Shift focus to the following entry.
Input line: Record COc1cc2c(NC3CCN(C(C)C)CC3)nc(N3CCC(F)(F)CC3)nc2cc1OCCCN1CCCC1 : is its Population Healthy Nuclei (%) strictly below 30%?
Output line: 1.0
